Quantity kind: melting point

Some compounds with recorded melting point:
O=C(O)c1cccc(-c2nc(-c3ccccc3F)no2)c1    233 to 234 °C
Cc1nn(C)c(=O)n1-c1ccc(N)cc1    160 °C
COC(=O)C1=C(C)OC(C)=C(C(=O)OC)C1c1ccccc1    62.5 °C
COc1ccc(C=NNC(=O)c2ccc(O)cc2)cc1    209 °C
CS(=O)(=O)c1ccc(-c2ccccc2-c2ccc(C(F)(F)F)cc2)cc1    173 to 174 °C

Would you kindly look at the next entry?
### Prompt Name the recorded melting point for CCOC(=O)C(C(=O)OCC)N(Cc1ccccc1)Cc1ccc(OC)cc1OC .
### Response 62 to 63 °C

This collection of values is drawn from a melting point compilation (Tetko et al.; mined from patent text by program, amines drawn as free bases though some values may be those of a salt).
